The measured values listed here are drawn from the supplement of paper PMC10307832.

test system: NCI-H1975; assay: relative viability (nuclei count vs DMSO), 5 days (fraction); higher = more cells survive; conditions: first compound 0.3162 µM
Output Criterion met for records whose relative viability is lower than 0.4, Criterion not met for records at or above 0.4.

NC(=O)Nc1cc(-c2cccc(F)c2)sc1C(=O)N[C@H]1CCCNC1 [AZD7762] + COc1cc2c(Oc3ccc(NC(=O)C4(C(=O)Nc5ccc(F)cc5)CC4)cc3F)ccnc2cc1OCCCN1CCOCC1 [Foretinib] (partner 0.25 µM) = Criterion not met
NC(=O)Nc1cc(-c2cccc(F)c2)sc1C(=O)N[C@H]1CCCNC1 [AZD7762] + N=C(N)NC(=N)NCCc1ccccc1 [Phenformin] (partner 250 µM) = Criterion met
NC(=O)Nc1cc(-c2cccc(F)c2)sc1C(=O)N[C@H]1CCCNC1 [AZD7762] + CC(=O)Nc1cccc(-n2c(=O)n(C3CC3)c(=O)c3c(Nc4ccc(I)cc4F)n(C)c(=O)c(C)c32)c1 [Trametinib] (partner 0.02 µM) = Criterion met
NC(=O)Nc1cc(-c2cccc(F)c2)sc1C(=O)N[C@H]1CCCNC1 [AZD7762] + CCNC(=O)c1noc(-c2cc(C(C)C)c(O)cc2O)c1-c1ccc(CN2CCOCC2)cc1 [Luminespib] (partner 0.01 µM) = Criterion met

Field: next molecule
QUERY: Decide: relative viability of NC(=O)Nc1cc(-c2cccc(F)c2)sc1C(=O)N[C@H]1CCCNC1 [AZD7762] + O=C(CCCCCCC(=O)Nc1ccccc1)NO [Vorinostat] (partner 1 µM) strictly below 0.4?
RESULT: Criterion not met

---

Entries annotated with measured relative viability
system: NCI-H358; assay: relative viability (nuclei count vs DMSO), 5 days (fraction); higher = more cells survive; details: first compound 0.1 µM
// no unit string in output, number only

Worked cases, answers included:
NC(=O)Nc1cc(-c2cccc(F)c2)sc1C(=O)N[C@H]1CCCNC1 [AZD7762] + Nc1nc2[nH]cc(CCc3ccc(C(=O)N[C@@H](CCC(=O)O)C(=O)O)cc3)c2c(=O)[nH]1 [Pemetrexed] (partner 0.2 µM) = 0.19
NC(=O)Nc1cc(-c2cccc(F)c2)sc1C(=O)N[C@H]1CCCNC1 [AZD7762] + Cc1cc(Nc2cc(N3CCN(C)CC3)nc(Sc3ccc(NC(=O)C4CC4)cc3)n2)n[nH]1 [Tozasertib] (partner 0.1 µM) = 0.109
NC(=O)Nc1cc(-c2cccc(F)c2)sc1C(=O)N[C@H]1CCCNC1 [AZD7762] + CC(=O)Nc1cccc(-n2c(=O)n(C3CC3)c(=O)c3c(Nc4ccc(I)cc4F)n(C)c(=O)c(C)c32)c1 [Trametinib] (partner 0.02 µM) = 0.148
NC(=O)Nc1cc(-c2cccc(F)c2)sc1C(=O)N[C@H]1CCCNC1 [AZD7762] + CS(=O)(=O)N1CCN(Cc2cc3nc(-c4cccc5[nH]ncc45)nc(N4CCOCC4)c3s2)CC1 [Pictilisib] (partner 1 µM) = 0.35

Turning now to a further record.
QUERY: # lookup: relative viability of NC(=O)Nc1cc(-c2cccc(F)c2)sc1C(=O)N[C@H]1CCCNC1 [AZD7762] + N=C(N)NC(=N)NCCc1ccccc1 [Phenformin] (partner 250 µM)
RESULT: 0.334

---

Each record here notes measured relative viability.
tested on: NCI-H1915; test: relative viability (nuclei count vs DMSO), 5 days (fraction); higher = more cells survive; details: first compound 0.3162 µM
I only need the number, thanks.

QUERY: Look up relative viability for this compound: NC(=O)Nc1cc(-c2cccc(F)c2)sc1C(=O)N[C@H]1CCCNC1 [AZD7762] + O=C(c1cc(Cc2n[nH]c(=O)c3ccccc23)ccc1F)N1CCN(C(=O)C2CC2)CC1 [Olaparib] (partner 8 µM)
RESULT: 0.209

QUERY: Any idea what relative viability was measured for NC(=O)Nc1cc(-c2cccc(F)c2)sc1C(=O)N[C@H]1CCCNC1 [AZD7762] + Nc1nc2[nH]cc(CCc3ccc(C(=O)N[C@@H](CCC(=O)O)C(=O)O)cc3)c2c(=O)[nH]1 [Pemetrexed] (partner 0.2 µM) ?
RESULT: 0.264

---

test system: NCI-H3122; test: relative viability (nuclei count vs DMSO), 5 days (fraction); higher = more cells survive; settings: first compound 0.04 µM
Collected relative viability values appear next to each entry.
When you answer, write just the number.

O=C(O)c1ccc(-c2c[nH]c3ncc(-c4ccccc4)cc23)cc1C1CCCC1 + COc1cccc2cc(-c3nc([C@H]4CC[C@H](C(=O)O)CC4)n4ncnc(N)c34)[nH]c12 [OSI-027] (partner 0.5 µM) = 0.973
O=C(O)c1ccc(-c2c[nH]c3ncc(-c4ccccc4)cc23)cc1C1CCCC1 + CC1(C)CCC(c2ccc(Cl)cc2)=C(CN2CCN(c3ccc(C(=O)NS(=O)(=O)c4ccc(N[C@H](CCN5CCOCC5)CSc5ccccc5)c(S(=O)(=O)C(F)(F)F)c4)cc3)CC2)C1 [Navitoclax] (partner 0.5 µM) = 1.02
O=C(O)c1ccc(-c2c[nH]c3ncc(-c4ccccc4)cc23)cc1C1CCCC1 + NC(=O)Nc1cc(-c2cccc(F)c2)sc1C(=O)N[C@H]1CCCNC1 [AZD7762] (partner 0.2 µM) = 0.97
O=C(O)c1ccc(-c2c[nH]c3ncc(-c4ccccc4)cc23)cc1C1CCCC1 + CCNC(=O)c1noc(-c2cc(C(C)C)c(O)cc2O)c1-c1ccc(CN2CCOCC2)cc1 [Luminespib] (partner 0.01 µM) = 0.0905
O=C(O)c1ccc(-c2c[nH]c3ncc(-c4ccccc4)cc23)cc1C1CCCC1 + CC(=O)Nc1cccc(-n2c(=O)n(C3CC3)c(=O)c3c(Nc4ccc(I)cc4F)n(C)c(=O)c(C)c32)c1 [Trametinib] (partner 0.02 µM) = 0.196
O=C(O)c1ccc(-c2c[nH]c3ncc(-c4ccccc4)cc23)cc1C1CCCC1 + C[C@]1(O)C[C@@H](c2nc(-c3ccc4ccc(-c5ccccc5)nc4c3)c3c(N)nccn32)C1 [Linsitinib] (partner 1 µM) = 0.966

Attention now turns to another entry.
QUERY: Reported relative viability, compound O=C(O)c1ccc(-c2c[nH]c3ncc(-c4ccccc4)cc23)cc1C1CCCC1 + O=C(CCCCCCC(=O)Nc1ccccc1)NO [Vorinostat] (partner 1 µM) : ____
RESULT: 1.1

---

tested on: NCI-H3122; experiment: relative viability (nuclei count vs DMSO), 5 days (fraction); higher = more cells survive; details: first compound 0.253 µM
Each entry below lists one item and its recorded relative viability value.
Output: the number by itself.

A selection of reference data follows.
Oc1nc(-c2ccc(C(F)(F)F)cc2)nc2c1CSCC2 [XAV939] + CS(=O)(=O)CCNCc1ccc(-c2ccc3ncnc(Nc4ccc(OCc5cccc(F)c5)c(Cl)c4)c3c2)o1 [Lapatinib] (partner 2 µM) = 0.95
C=C1C(=O)O[C@@H](CCCCCCCC)[C@@H]1C(=O)O [C-75] + N=C(N)NC(=N)NCCc1ccccc1 [Phenformin] (partner 250 µM) = 0.406
Oc1nc(-c2ccc(C(F)(F)F)cc2)nc2c1CSCC2 [XAV939] + N=C(N)NC(=N)NCCc1ccccc1 [Phenformin] (partner 250 µM) = 0.336
Oc1nc(-c2ccc(C(F)(F)F)cc2)nc2c1CSCC2 [XAV939] + O=C(c1cc(Cc2n[nH]c(=O)c3ccccc23)ccc1F)N1CCN(C(=O)C2CC2)CC1 [Olaparib] (partner 8 µM) = 0.574

Consider the record given below.
QUERY: Tell me the measured relative viability of C=C1C(=O)O[C@@H](CCCCCCCC)[C@@H]1C(=O)O [C-75] + O=C(c1cc(Cc2n[nH]c(=O)c3ccccc23)ccc1F)N1CCN(C(=O)C2CC2)CC1 [Olaparib] (partner 8 µM) , please.
RESULT: 0.636

---

Some molecules, each annotated with its measured relative viability.
tested on: NCI-H1755; experiment: relative viability (nuclei count vs DMSO), 5 days (fraction); higher = more cells survive; conditions: first compound 0.01581 µM
# output: bare number, no unit

CC1(C)CCC(c2ccc(Cl)cc2)=C(CN2CCN(c3ccc(C(=O)NS(=O)(=O)c4ccc(N[C@H](CCN5CCOCC5)CSc5ccccc5)c(S(=O)(=O)C(F)(F)F)c4)cc3)CC2)C1 [Navitoclax] + COc1cccc2cc(-c3nc([C@H]4CC[C@H](C(=O)O)CC4)n4ncnc(N)c34)[nH]c12 [OSI-027] (partner 0.5 µM) = 0.834
CC1(C)CCC(c2ccc(Cl)cc2)=C(CN2CCN(c3ccc(C(=O)NS(=O)(=O)c4ccc(N[C@H](CCN5CCOCC5)CSc5ccccc5)c(S(=O)(=O)C(F)(F)F)c4)cc3)CC2)C1 [Navitoclax] + O=C(CCCCCCC(=O)Nc1ccccc1)NO [Vorinostat] (partner 1 µM) = 0.798

Next up:
QUERY: For the molecule shown here, CC1(C)CCC(c2ccc(Cl)cc2)=C(CN2CCN(c3ccc(C(=O)NS(=O)(=O)c4ccc(N[C@H](CCN5CCOCC5)CSc5ccccc5)c(S(=O)(=O)C(F)(F)F)c4)cc3)CC2)C1 [Navitoclax] + C[C@]1(O)C[C@@H](c2nc(-c3ccc4ccc(-c5ccccc5)nc4c3)c3c(N)nccn32)C1 [Linsitinib] (partner 1 µM) , give the reported relative viability.
RESULT: 0.993
